# System: K562
# assay.remarks: Cell cycle arrest in human K562 cells assessed as accumulation at G0-G1 phase at IC75 after 72 hrs using propidium iodide staining by flow cytometry
# Assay type: functional
The label Criterion met is reserved for Activity strictly under 20%; Criterion not met covers values equal to or above it.

[[record]]
structure_as_smiles = "C=C(Br)C(=O)Nc1ccc(/C=C/C(=O)c2ccc(Br)cc2)cc1"
category_label = "Criterion not met"

[[record]]
structure_as_smiles = "C=C(Br)C(=O)Nc1ccc(C(=O)/C=C/c2ccc(OC)c(OC)c2OC)cc1"
category_label = "Criterion met"

[[record]]
structure_as_smiles = "C=C(Br)C(=O)Nc1ccc(C(=O)/C=C/c2ccccc2OC)cc1"
category_label = "Criterion met"

[[record]]
structure_as_smiles = "C=C(Br)C(=O)Nc1ccc(C(=O)/C=C/c2cccc(OC)c2OC)cc1"
category_label = "Criterion not met"

[[record]]
structure_as_smiles = "C=C(Br)C(=O)Nc1ccc(/C=C/C(=O)c2cccs2)cc1"
category_label = "Criterion met"

[[record]]
structure_as_smiles = "C=C(Br)C(=O)Nc1ccc(C(=O)/C=C/c2ccccc2)cc1"
category_label = "Criterion not met"

[[record]]
structure_as_smiles = "C=C(Br)C(=O)Nc1ccc(/C=C/C(=O)c2ccc(OCC)cc2)cc1"
category_label = "Criterion met"

[[record]]
structure_as_smiles = "C=C(Br)C(=O)Nc1ccc(C(=O)/C=C/c2ccc(OC)cc2)cc1"
category_label = "Criterion met"

